TARGET_OR_TEST_SYSTEM: Human insulin (HI) (Homo sapiens)
Sequence (P01308 25-54): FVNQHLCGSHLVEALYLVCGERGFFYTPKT
Sequence (P01308 90-110): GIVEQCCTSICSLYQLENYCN
PROCEDURE_SUMMARY: ITC, insulin titrated into CBBG, one-site model
MEASUREMENT_NAME: Kd (µM)
Give bare numbers, in µM.

Identify the reported Kd for the following entry. "CCOc1ccc(Nc2ccc(/C(=C3C=C/C(=[N+](/CC)Cc4cccc(S(=O)(=O)[O-])c4)C=C/3C)c3ccc(N(CC)Cc4cccc(S(=O)(=O)O)c4)cc3C)cc2)cc1"
12.5

Recorded values, source paper doi:10.1101/2020.08.26.267799v1.
